Test system: NCI-H226
assay_summary: NCI tumour cell line growth inhibition, 48 h
Active and inactive are the calls of the source. Rule as the data show it: active = GI50 up to about 1.1 µM and inactive = higher.
measurement_label: GI50

* COc1cc(-c2coc3c(OC)c(OC4OC(CO)C(O)C(O)C4O)c(OC)cc3c2=O)cc(OC)c1C (stereo not given) | 25.7 µM (inactive)
* N#Cc1c(N2CCCC2)nsc1Nc1ccc(F)cc1 | > 100 µM (inactive)
* Nc1nc(O)c2ncn(C3C=CC(CO)C3)c2n1 (stereo not given) | > 100 µM (inactive)
* CC(=O)O[C@@H]1[C@H]2O[C@H]2[C@H]2O[C@@]2(COC(=O)c2ccccc2)[C@H]1OC(C)=O | > 100 µM (inactive)
* Cc1c2cnccc2c(C)c2c1c1ccccc1n2CCCCCCNCc1ccccc1 | 1.55 µM (inactive)
* CCCCCCCCCCCCCCC[C@@H](O)C[N+](C)(C)CCO | 2.79 µM (inactive)

So the reported GI50 for CCOc1ccc(NC(=O)C(=O)C(/C(=N/N)C(=O)OC)c2nc3ccc([N+](=O)[O-])cc3nc2O)cc1 (stereo not given) , on NCI-H226, turned out to be > 100 µM (inactive)

So the reported GI50 for CCOC(=O)NC(Nc1ccc(F)cc1)(C(=O)OCC)C(F)(F)F (stereo not given) , on NCI-H226, turned out to be > 100 µM (inactive)

So the reported GI50 for CCC(c1ccc(OC)cc1)C1NC(=S)NC1=O (stereo not given) , on NCI-H226, turned out to be > 50 µM (inactive)

So the reported GI50 for "Cc1cc(C)c2ccc(N3CCNCC3)nc2n1" , on NCI-H226, turned out to be > 100 µM (inactive)

---

System: SK-MEL-28
assay_summary: NCI tumour cell line growth inhibition, 48 h
Activity calls are given as the source filed them. Cut-off read from the data, not from the text of the source: active = GI50 up to about 1.1 µM and inactive = higher.
A collection of molecules and their measured GI50

Please review the following examples before continuing.
* CCOC1SC(SC)=NN1C(=O)C(OC(C)=O)C(OC(C)=O)C(OC(C)=O)C(OC(C)=O)C(=O)N1N=C(SC)SC1OCC (stereo not given) | > 100 µM (inactive)
* Cc1ccc(C2NC(=O)c3ccccc3N2)c(C)c1 (stereo not given) | 6.58 µM (inactive)
* CC1=NN(c2ccccc2)C(=O)C1/N=N/c1ccc([As](=O)(O)O)c(O)c1 (stereo not given) | > 100 µM (inactive)
* Cc1ccccc1NC(=O)C(=O)c1c(O)c2ccc(O)cc2oc1=O | > 100 µM (inactive)
* CN(C)CCNC(=O)c1cccc2ccc(-c3ccc(-c4ccccc4)cc3)nc12 | 1.76 µM (inactive)

Recorded result, "C=CCOCn1cnc2c(N)ncnc21" , GI50: > 100 µM (inactive)

Recorded result, "C/C(=N\NC(=S)N/N=C(\C)c1ccccn1)c1ccccn1" , GI50: 8.36 µM (inactive)

---

System: NCI-H522
assay_summary: NCI tumour cell line growth inhibition, 48 h
Activity calls are given as the source filed them. No stated cut-off is given here; in the data, active = GI50 up to about 1.1 µM and inactive = higher.
Return exactly one item of y (active), n (inactive)

Worked examples, 8 compounds total:
- Cc1ccc(C)c(COCCOCn2ccc(N)nc2=O)c1: n
- O=C1NC(=O)C2C1N(Cc1ccccc1)C(=O)N2Cc1ccccc1 (stereo unspecified): n
- CC(C)c1nc(Cl)nc(Cl)c1Cl: y
- N#Cc1c(-c2ccccc2)c(/N=N/c2ccc(F)cc2)c(=O)n2c1[nH]c1ccccc12: n
- COc1ccc2c(C(=O)O)cc3ccccc3c2c1OC: n
- COC(=O)C1(Cc2ccccc2)Cc2cc3c(cc2C1O)CCC3 (stereo unspecified): n
- C=C(C(=O)C(=O)Oc1ccc(Cl)cc1)C(=O)c1ccc(C)cc1: n
- NS(=O)(=O)c1cc(C(=O)O)c(O)c2ccccc12: n

[ask] I'd appreciate the recorded outcome for "COc1ccc(C(=O)O)c2c(=O)c3cccnc3[nH]c12" from this test.
[reply] n

---

System: NCI-H23
assay_summary: NCI tumour cell line growth inhibition, 48 h
Activity calls are given as the source filed them. No stated cut-off is given here; in the data, active = GI50 up to about 1.1 µM and inactive = higher.
Return exactly one item of active, inactive

• CC(=O)/C=C/c1ccc(C2CC(C)=Nc3c(ccc4c3C(=O)c3ccccc3C4=O)N2)cc1 (stereo not given) = inactive
• c1ccc(SCCc2ccncc2)cc1 = inactive
• CCc1cc2c(c3[nH]ccc13)[C@@H](C)C[C@H]2C = inactive
• CC(C)c1nc(Cl)nc(Cl)c1Cl = active

[ask] I'd appreciate the recorded outcome for CC(=O)OCC12C(OC(C)=O)C(=O)C3C(OC(C)=O)C14OC3(C)COC(=O)c1cccnc1C(C)C(C)C(=O)OC(C(OC(C)=O)C2OC(C)=O)C4(C)O (stereo not given) from this test.
[reply] inactive

[ask] I'd appreciate the recorded outcome for "COc1ccc(C(=O)O)c2c(=O)c3cccnc3[nH]c12" from this test.
[reply] inactive

[ask] I'd appreciate the recorded outcome for C[C@@H](NC(=O)OC1C=CC2(CC1)C(=O)N(C)c1ccccc12)c1cccc2ccccc12 (stereo not given in full) from this test.
[reply] inactive

[ask] I'd appreciate the recorded outcome for Nc1nc(=O)c2c([nH]1)NCC(CCNc1ccc(C(=O)O)cc1)N2 (stereo not given) from this test.
[reply] inactive

[ask] I'd appreciate the recorded outcome for "CNC(=O)N1CCN(C(=O)NC)CCN(C(=O)NC)CC1" from this test.
[reply] inactive

[ask] I'd appreciate the recorded outcome for "c1ccc(/N=C2\SC3=NCCN3\C2=N/c2ccccc2)cc1" from this test.
[reply] inactive

[ask] I'd appreciate the recorded outcome for "O=c1[nH]c2c(c3ccccc13)CCc1ccccc1-2" from this test.
[reply] inactive

[ask] I'd appreciate the recorded outcome for "CCN(CC)CCNC(=O)c1ccccc1Nc1c(Cl)cccc1Cl" from this test.
[reply] inactive

---

A collection of compounds and their measured GI50
System: SF-295
assay_summary: NCI tumour cell line growth inhibition, 48 h
Calls of active or inactive are those of the source. No stated cut-off is given here; in the data, active = GI50 up to about 1.1 µM and inactive = higher.

Please review the following examples before continuing.
- COc1cc2c(c(OC)c1OC)-c1ccc(SC)c(=O)cc1[C@@H](NC(=O)c1ccc([N+](=O)[O-])cc1)CC2: < 0.0025 µM (active)
- COc1cc(-c2coc3c(OC)c(OC4OC(CO)C(O)C(O)C4O)c(OC)cc3c2=O)cc(OC)c1C (stereo not given): 11.7 µM (inactive)
- COCc1nc2c(OC)c(-c3nc4ccc(N5CCN(C)CC5)nc4[nH]3)cc(OC)c2n1C: 32.1 µM (inactive)
- COC(=O)C(Cc1c[nH]c2ccccc12)NC(=O)C(Cc1c[nH]c2ccccc12)NC(=O)OCc1ccccc1 (stereo not given): 17.9 µM (inactive)

Shift focus to the following entry.
Recorded result, "Cc1ncc(C/N=C/c2ccc(Cl)cc2)c(N)n1" , GI50: > 100 µM (inactive)

---

System: KM-20L2
assay_summary: NCI tumour cell line growth inhibition, 48 h
The source made the active and inactive calls. Cut-off read from the data, not from the text of the source: active = GI50 up to about 1.1 µM and inactive = higher.
A collection of molecules and their measured GI50

* Oc1cccnc1/C=N/OCc1ccccc1 | > 100 µM (inactive)
* O=[N+]([O-])C(=C(c1ccccc1)c1ccccc1)[N+](=O)[O-] | 17.2 µM (inactive)
* N#CC(C#N)=Cc1cccc(Oc2ccccc2)c1 | 37.4 µM (inactive)
* COC(=O)NC(=O)c1cn(CCCOC(=O)CCCCCCCCC(=O)OCCCn2cc(C(=O)NC(=O)OC)c(=O)[nH]c2=O)c(=O)[nH]c1=O | > 100 µM (inactive)
* CCC(C)CCOC(=O)c1ccc(/N=C\c2ccc(/C=N/c3ccc(C(=O)OCCC(C)CC)cc3)cc2)cc1 (stereo unspecified) | > 100 µM (inactive)

Shift focus to the following entry.
Recorded result, CC(=O)OC1(C#N)CC2OC1C1NC21 (stereo unspecified) , GI50: > 100 µM (inactive)

---

Tested on: SF-268
assay_summary: NCI tumour cell line growth inhibition, 48 h
The source made the active and inactive calls. Cut-off read from the data, not from the text of the source: active = GI50 up to about 1.1 µM and inactive = higher.
measurement_label: GI50

• O=C1OC(C2OC(=O)c3cc(O)c(O)c(O)c3-c3c(O)c(O)c4oc(=O)c5c(c(O)c(O)c6oc(=O)c3c4c65)-c3c(cc(O)c(O)c3O)C(=O)OCC2O)C2OC(=O)c3c(c(O)c(O)c(O)c3[C@H]2O)-c2c1cc(O)c(O)c2O (some centres undefined) = 24.7 µM (inactive)
• CCOC(=O)c1c(N2CCCC2)[nH]c(=O)c(C(c2ccco2)c2c(O)c(C(=O)OCC)c(N3CCCC3)[nH]c2=O)c1O = 85.3 µM (inactive)
• O=[N+]([O-])C(=C/c1ccccc1)/C(=C\c1ccccc1)[N+](=O)[O-] = 26.7 µM (inactive)

Recorded result, "O=C(c1ccccc1)N(C(=O)c1ccccc1)c1nc(SCc2ccccc2)ns1" , GI50: 30.8 µM (inactive)

---

A collection of compounds and their measured GI50
Test system: SF-268
assay_summary: NCI tumour cell line growth inhibition, 48 h
Calls of active or inactive are those of the source. No stated cut-off is given here; in the data, active = GI50 up to about 1.1 µM and inactive = higher.

* C=CCCCCCCCCC(=O)ON(Cc1ccc(O)c(OC)c1)C(=O)C(F)(F)F | > 100 µM (inactive)
* CNC(=O)CCCNC(=O)CCCCC(=O)N(C)C | > 100 µM (inactive)

Shift focus to the following entry.
Recorded result, "Nc1ccccc1S(=O)(=O)N(CC(=O)O)c1ccccc1" , GI50: > 100 µM (inactive)
